Values from PubChem BioAssay AID1626

Assay: M. tuberculosis H37Rv growth inhibitors, H37Rv strain (AID 1626);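 note: bacteria incubated seven days before Alamar blue readout; 0% = bacteria only wells and 100% = bacteria with antibiotic wells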
Conditions: active compounds read high, concentration not given here
Screen size: about 220,000 compounds; about 2,000 (0.91%) were called active. Roughly 2% stayed inconclusive and do not appear here. Not all results are given here. Entries with a potency or affinity are not part of this list.
resultType: inhibition (%)
Numbers only, in %.

Worked cases, inhibition given:
COc1ccc(-c2c[n+](CC(=O)N3c4ccccc4Sc4ccccc43)c3n2CCC3)cc1 :: 78.6
COc1ccc(-c2nnc(Nc3nc4c(OC)cccc4s3)o2)c(OC)c1 :: 3.73
CCN(CC)S(=O)(=O)c1ccc(/C=C/C(=O)O)cc1 :: -3.16

# per-item lookup of inhibition; items listed below
1. CNC(=O)c1[nH]cnc1C(=O)Nc1ccc(OC)cc1
2. O=C(O)C12C[C@H]3C[C@@H](C1)CC(n1ncc(N4CCN(c5ccccc5)CC4)c(Cl)c1=O)(C3)C2
3. Fc1ccc2[nH]c3c(N4CCc5ccccc5C4)ncnc3c2c1
4. Cc1ccc2c(c1)c1ncnc(N3CCC4(CC3)OCCO4)c1n2C

Return:
1. 5.16
2. -7.44
3. 4.31
4. -2.11

# per-item lookup of inhibition; items listed below
1. CCNC(=O)CN1C(=O)NC(Cc2ccccc2)(Cc2ccccc2)C1=O
2. Cc1ccc(NC(=O)CCNC(=O)c2ccco2)cc1
3. O=C(C[n+]1cc(-c2ccc(F)cc2)n2c1CCC2)c1cccs1
4. O=C(/C=C/c1cccnc1)c1ccc(NC(=O)c2cccc(Br)c2)cc1
5. O=c1cc(CSc2n[nH]c(-c3ccncc3)n2)nc2sccn12
6. Cc1ccc(C(NC(=O)c2ccccc2)C(Cl)(Cl)Cl)cc1 (centres undefined)

Return:
-0.94
3.05
0.03
8.79
1.39
5.19

# per-item lookup of inhibition; items listed below
1. Cc1cccc(NC(=O)c2cccnc2)c1
2. COc1ccccc1-c1nnc(Nc2nc3c(OC)cccc3s2)o1
3. C=CCn1c(=O)c2c(C)c(C)sc2n2c(Nc3ccccc3)nnc12
4. O=C(CCN1CCCCC1)N/N=C/c1c[nH]c2ccccc12

Return:
1.57
8.74
-3.44
-4.97

# per-item lookup of inhibition; items listed below
1. COc1ccc(NC(=O)c2nc[nH]c2C(=O)N[C@@H](C)C(=O)OC(C)(C)C)cc1
2. CC(C)(C)NS(=O)(=O)c1ccc(CCC(=O)Nc2ccc3c(c2)OCCO3)cc1

Return:
[5.92, -4.02]
